- MEASURED ON: UniProt Q01727
- Sequence (Q01727 whole entry): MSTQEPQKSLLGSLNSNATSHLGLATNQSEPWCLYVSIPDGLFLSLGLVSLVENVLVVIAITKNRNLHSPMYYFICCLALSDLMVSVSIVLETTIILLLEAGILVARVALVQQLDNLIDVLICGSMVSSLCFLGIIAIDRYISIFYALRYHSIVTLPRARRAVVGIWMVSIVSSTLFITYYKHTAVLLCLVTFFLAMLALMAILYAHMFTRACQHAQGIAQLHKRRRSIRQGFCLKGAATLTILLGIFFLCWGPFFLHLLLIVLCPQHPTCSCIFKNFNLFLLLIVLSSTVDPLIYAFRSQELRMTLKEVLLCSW
- PROTOCOL: AlphaScreen cAMP agonist assay, HEK293 cells stably expressing mMC1R
Below, each entry is listed alongside its reported log10 of EC50.
All values: log10 EC50 [nM].

Before answering, review these 4 worked examples.
C[C@H](O)[C@@H]1CN([C@H](CC2CCCCC2)CN2CCC[C@H]2CN2CCNC2=N)C(=N)N1CC1CCC(C(C)(C)C)CC1 (stereo partly drawn) = 2.66
C[C@H](O)[C@@H]1CN([C@H](Cc2ccccc2)CN2CCC[C@H]2CN2CCNC2=N)C(=N)N1CC1CCC(C(C)(C)C)CC1 (stereo partly drawn) = 2.59
CC(C)C[C@H]1CNC(=N)N1C[C@@H]1CCCN1C[C@@H](Cc1ccccc1)N1C[C@H]([C@@H](C)O)N(CC2CCC(C(C)(C)C)CC2)C1=N (stereo partly drawn) = 2.95
CC(C)C[C@H]1CNC(=N)N1C[C@H]1CCCN1C[C@H](CC1CCCCC1)N1C[C@H]([C@@H](C)O)N(CC2CCC(C(C)(C)C)CC2)C1=N (stereo partly drawn) = 3.90

The compound listed as CCC[C@H]1CN([C@H](CC2CCCCC2)CN2CCC[C@H]2CN2C(=N)NC[C@H]2C(C)C)C(=N)N1CC1CCC(C(C)(C)C)CC1 (stereo partly drawn) has a reported log10 of EC50 of 3.51

The compound listed as CCN1C(=N)N([C@H](CC2CCCCC2)CN2CCC[C@H]2CN2C(=N)NC[C@H]2CC(C)C)C[C@H]1[C@H](C)O has a reported log10 of EC50 of 3.70

The compound listed as CCC[C@@H]1CN([C@@H](CC2CCCCC2)CN2CCC[C@H]2CN2C(=N)NC[C@H]2C(C)C)C(=N)N1CC1CCC(C(C)(C)C)CC1 (stereo partly drawn) has a reported log10 of EC50 of 3.78

The compound listed as CCC[C@@H]1CN(CCN2CCC[C@H]2CN2C(=N)NC[C@H]2C(C)C)C(=N)N1CC1CCC(C(C)(C)C)CC1 (stereo partly drawn) has a reported log10 of EC50 of 4.00

The compound listed as CC(C)C[C@H]1CNC(=N)N1C[C@H]1CCCN1C[C@H](Cc1ccccc1)N1C[C@@H]([C@H](C)O)N(CC2CCC(C(C)(C)C)CC2)C1=N (stereo partly drawn) has a reported log10 of EC50 of 3.85

The compound listed as CC(C)CC1CNC(=N)N1CC1CCCN1CC(Cc1ccccc1)N1CC(C(C)O)N(CC2CCC(C(C)(C)C)CC2)C1=N (stereo not drawn) has a reported log10 of EC50 of 2.51

The compound listed as CC(C)C[C@H]1CNC(=N)N1C[C@H]1CCCN1C[C@@H](Cc1ccccc1)N1C[C@@H]([C@H](C)O)N(CC2CCC(C(C)(C)C)CC2)C1=N (stereo partly drawn) has a reported log10 of EC50 of 2.95

The compound listed as CC(C)C[C@@H]1CNC(=N)N1C[C@H]1CCCN1C[C@@H](Cc1ccccc1)N1C[C@@H]([C@H](C)O)N(CC2CCC(C(C)(C)C)CC2)C1=N (stereo partly drawn) has a reported log10 of EC50 of 2.60
